molecular target: UniProt O77390; assay: IC50 for competition of protein binding to Kinobeads; settings: assay detail: Kinobeads competition in P. falciparum blood-stage lysate;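 also: native unpurified kinases from lysate captured on beads bearing immobilized kinase inhibitors, with bead-bound kinases quantified by mass spectrometry across compound doses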
testReadout: IC50

Consider the compound O=c1[nH]c2ccc(Cl)cc2c(NC2CN3CCC2CC3)c1-c1nc2ccccc2[nH]1 (stereo unspecified) and give its measured IC50. > 20 µM

---

Molecular target: UniProt Q8II36
Sequence (whole entry): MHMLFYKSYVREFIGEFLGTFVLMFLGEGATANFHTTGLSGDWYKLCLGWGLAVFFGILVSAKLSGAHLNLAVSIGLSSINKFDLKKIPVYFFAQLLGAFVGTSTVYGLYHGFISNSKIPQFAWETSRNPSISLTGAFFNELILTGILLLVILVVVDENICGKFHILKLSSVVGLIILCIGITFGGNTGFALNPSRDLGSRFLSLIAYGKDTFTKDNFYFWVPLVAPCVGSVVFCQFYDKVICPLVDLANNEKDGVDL
Assay: IC50 for competition of protein binding to Kinobeads
Conditions: assay detail: Kinobeads competition in P. falciparum blood-stage lysate
testReadout: IC50

Consider the molecule O=c1[nH]c2ccc(Cl)cc2c(NC2CN3CCC2CC3)c1-c1nc2ccccc2[nH]1 (stereo unspecified) [CHIR-124] and give its measured IC50. > 20 µM

---

molecular target: UniProt Q8IM32; assay: IC50 for competition of protein binding to Kinobeads; settings: assay detail: Kinobeads competition in P. falciparum blood-stage lysate
pIC50: −log10 of the molar value.
testReadout: pIC50

Consider the compound O=c1[nH]c2ccc(Cl)cc2c(NC2CN3CCC2CC3)c1-c1nc2ccccc2[nH]1 (stereo unspecified) [CHIR-124] and give its measured pIC50. < 4.70

---

molecular target: UniProt Q8IIM5; assay: IC50 for competition of protein binding to Kinobeads; conditions: assay detail: Kinobeads competition in P. falciparum blood-stage lysate
testReadout: IC50

Consider the compound O=c1[nH]c2ccc(Cl)cc2c(NC2CN3CCC2CC3)c1-c1nc2ccccc2[nH]1 (stereo unspecified) [CHIR-124] and give its measured IC50. > 20 µM

---

target: UniProt Q8IBN7; experiment: IC50 for competition of protein binding to Kinobeads; conditions: assay detail: Kinobeads competition in P. falciparum blood-stage lysate
pIC50: −log10 of the molar value.
testReadout: pIC50

Please provide the recorded pIC50 for O=c1[nH]c2ccc(Cl)cc2c(NC2CN3CCC2CC3)c1-c1nc2ccccc2[nH]1 (stereo unspecified) , tested on UniProt Q8IBN7. < 4.70

---

target: UniProt B9ZSI3; test: IC50 for competition of protein binding to Kinobeads; conditions: assay detail: Kinobeads competition in P. falciparum blood-stage lysate
testReadout: IC50

Consider the compound O=c1[nH]c2ccc(Cl)cc2c(NC2CN3CCC2CC3)c1-c1nc2ccccc2[nH]1 (stereo unspecified) and give its measured IC50. > 20 µM

---

molecular target: UniProt C0H5L6; assay: IC50 for competition of protein binding to Kinobeads; conditions: assay detail: Kinobeads competition in P. falciparum blood-stage lysate
pIC50: −log10 of the molar value.
testReadout: pIC50

Consider the compound O=c1[nH]c2ccc(Cl)cc2c(NC2CN3CCC2CC3)c1-c1nc2ccccc2[nH]1 (stereo unspecified) and give its measured pIC50. < 4.70

---

target: UniProt Q8IM16; assay: IC50 for competition of protein binding to Kinobeads; conditions: assay detail: Kinobeads competition in P. falciparum blood-stage lysate
Sequence (Q8IM16 whole entry): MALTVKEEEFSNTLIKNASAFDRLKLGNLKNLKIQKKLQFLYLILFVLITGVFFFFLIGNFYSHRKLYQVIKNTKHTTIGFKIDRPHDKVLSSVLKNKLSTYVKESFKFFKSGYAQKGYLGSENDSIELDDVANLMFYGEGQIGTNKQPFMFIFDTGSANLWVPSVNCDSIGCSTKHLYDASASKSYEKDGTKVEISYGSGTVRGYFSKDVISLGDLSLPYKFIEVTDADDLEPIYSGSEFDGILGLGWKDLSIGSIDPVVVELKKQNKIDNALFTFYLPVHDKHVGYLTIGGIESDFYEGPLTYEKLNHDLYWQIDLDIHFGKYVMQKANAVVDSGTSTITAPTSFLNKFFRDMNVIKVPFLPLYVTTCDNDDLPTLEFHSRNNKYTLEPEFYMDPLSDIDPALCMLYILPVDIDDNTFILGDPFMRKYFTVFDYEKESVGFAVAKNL
pIC50: −log10 of the molar value.
testReadout: pIC50

Consider the compound O=c1[nH]c2ccc(Cl)cc2c(NC2CN3CCC2CC3)c1-c1nc2ccccc2[nH]1 (stereo unspecified) and give its measured pIC50. < 4.70

---

target: UniProt Q8ILF0; assay: IC50 for competition of protein binding to Kinobeads; settings: assay detail: Kinobeads competition in P. falciparum blood-stage lysate
pIC50: −log10 of the molar value.
testReadout: pIC50

Consider the compound O=c1[nH]c2ccc(Cl)cc2c(NC2CN3CCC2CC3)c1-c1nc2ccccc2[nH]1 (stereo unspecified) and give its measured pIC50. < 4.70

---

biological target: UniProt Q8IBS5; experiment: IC50 for competition of protein binding to Kinobeads; settings: assay detail: Kinobeads competition in P. falciparum blood-stage lysate
Sequence (Q8IBS5 whole entry): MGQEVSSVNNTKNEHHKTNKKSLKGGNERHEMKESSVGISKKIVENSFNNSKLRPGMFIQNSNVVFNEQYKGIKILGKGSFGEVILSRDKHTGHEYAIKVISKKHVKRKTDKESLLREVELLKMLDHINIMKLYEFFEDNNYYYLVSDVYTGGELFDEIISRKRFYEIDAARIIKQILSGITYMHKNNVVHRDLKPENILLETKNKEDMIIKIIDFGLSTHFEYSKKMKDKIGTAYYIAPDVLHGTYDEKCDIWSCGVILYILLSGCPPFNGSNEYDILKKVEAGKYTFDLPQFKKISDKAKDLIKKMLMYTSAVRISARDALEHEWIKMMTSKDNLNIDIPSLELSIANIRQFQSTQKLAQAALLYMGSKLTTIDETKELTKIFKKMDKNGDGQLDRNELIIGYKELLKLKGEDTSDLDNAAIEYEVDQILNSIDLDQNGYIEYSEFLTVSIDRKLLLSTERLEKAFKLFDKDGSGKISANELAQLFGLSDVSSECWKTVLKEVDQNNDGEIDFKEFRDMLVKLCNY
testReadout: IC50

Consider the molecule O=c1[nH]c2ccc(Cl)cc2c(NC2CN3CCC2CC3)c1-c1nc2ccccc2[nH]1 (stereo unspecified) [CHIR-124] and give its measured IC50. > 20 µM

---

target: UniProt Q8I2J4; test: IC50 for competition of protein binding to Kinobeads; conditions: assay detail: Kinobeads competition in P. falciparum blood-stage lysate
Sequence (Q8I2J4 whole entry): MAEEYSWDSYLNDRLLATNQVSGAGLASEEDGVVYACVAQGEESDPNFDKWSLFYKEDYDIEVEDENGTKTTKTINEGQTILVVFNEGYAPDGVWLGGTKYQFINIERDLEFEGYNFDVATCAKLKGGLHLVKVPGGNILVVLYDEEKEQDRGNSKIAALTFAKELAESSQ
pIC50: −log10 of the molar value.
testReadout: pIC50

Please provide the recorded pIC50 for O=c1[nH]c2ccc(Cl)cc2c(NC2CN3CCC2CC3)c1-c1nc2ccccc2[nH]1 (stereo unspecified) [CHIR-124] , tested on UniProt Q8I2J4. < 4.70

---

target: UniProt Q8IL22; experiment: IC50 for competition of protein binding to Kinobeads; conditions: assay detail: Kinobeads competition in P. falciparum blood-stage lysate
testReadout: IC50

Consider the compound O=c1[nH]c2ccc(Cl)cc2c(NC2CN3CCC2CC3)c1-c1nc2ccccc2[nH]1 (stereo unspecified) and give its measured IC50. > 20 µM

---

molecular target: UniProt Q8IE50; experiment: IC50 for competition of protein binding to Kinobeads; details: assay detail: Kinobeads competition in P. falciparum blood-stage lysate
testReadout: IC50

Consider the molecule O=c1[nH]c2ccc(Cl)cc2c(NC2CN3CCC2CC3)c1-c1nc2ccccc2[nH]1 (stereo unspecified) and give its measured IC50. > 20 µM

---

target: UniProt Q8IDT0; assay: IC50 for competition of protein binding to Kinobeads; conditions: assay detail: Kinobeads competition in P. falciparum blood-stage lysate
pIC50: −log10 of the molar value.
testReadout: pIC50

Consider the compound O=c1[nH]c2ccc(Cl)cc2c(NC2CN3CCC2CC3)c1-c1nc2ccccc2[nH]1 (stereo unspecified) and give its measured pIC50. < 4.70

---

target: UniProt Q8IBP8; assay: IC50 for competition of protein binding to Kinobeads; conditions: assay detail: Kinobeads competition in P. falciparum blood-stage lysate
pIC50: −log10 of the molar value.
testReadout: pIC50

Consider the compound O=c1[nH]c2ccc(Cl)cc2c(NC2CN3CCC2CC3)c1-c1nc2ccccc2[nH]1 (stereo unspecified) and give its measured pIC50. < 4.70

---

target: UniProt Q8I6T3; assay: IC50 for competition of protein binding to Kinobeads; conditions: assay detail: Kinobeads competition in P. falciparum blood-stage lysate
pIC50: −log10 of the molar value.
testReadout: pIC50

Consider the compound O=c1[nH]c2ccc(Cl)cc2c(NC2CN3CCC2CC3)c1-c1nc2ccccc2[nH]1 (stereo unspecified) [CHIR-124] and give its measured pIC50. < 4.70

---

target: Q8ICR0 (UniProt O15865); assay: IC50 for competition of protein binding to Kinobeads; conditions: assay detail: Kinobeads competition in P. falciparum blood-stage lysate
Sequence (O15865 whole entry, one chain of several): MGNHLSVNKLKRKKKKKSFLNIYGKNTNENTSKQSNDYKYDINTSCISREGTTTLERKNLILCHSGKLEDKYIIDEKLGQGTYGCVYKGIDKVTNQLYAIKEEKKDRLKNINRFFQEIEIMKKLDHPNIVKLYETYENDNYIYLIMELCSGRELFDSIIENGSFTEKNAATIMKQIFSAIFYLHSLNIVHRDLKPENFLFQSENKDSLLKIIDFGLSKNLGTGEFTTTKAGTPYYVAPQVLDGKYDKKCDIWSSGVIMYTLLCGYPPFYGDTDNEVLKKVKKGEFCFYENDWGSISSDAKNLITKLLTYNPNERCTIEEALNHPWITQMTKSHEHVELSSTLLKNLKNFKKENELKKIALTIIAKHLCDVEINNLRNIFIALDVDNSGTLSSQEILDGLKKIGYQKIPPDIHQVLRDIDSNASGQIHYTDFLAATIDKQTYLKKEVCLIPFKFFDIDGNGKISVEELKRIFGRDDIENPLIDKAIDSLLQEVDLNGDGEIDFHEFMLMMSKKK
testReadout: IC50

Consider the compound O=c1[nH]c2ccc(Cl)cc2c(NC2CN3CCC2CC3)c1-c1nc2ccccc2[nH]1 (stereo unspecified) [CHIR-124] and give its measured IC50. > 20 µM

---

target: UniProt Q8IJI0; test: IC50 for competition of protein binding to Kinobeads; settings: assay detail: Kinobeads competition in P. falciparum blood-stage lysate
testReadout: IC50

Consider the compound O=c1[nH]c2ccc(Cl)cc2c(NC2CN3CCC2CC3)c1-c1nc2ccccc2[nH]1 (stereo unspecified) [CHIR-124] and give its measured IC50. > 20 µM

---

molecular target: UniProt Q8IEM3; test: IC50 for competition of protein binding to Kinobeads; conditions: assay detail: Kinobeads competition in P. falciparum blood-stage lysate
testReadout: IC50

Consider the compound O=c1[nH]c2ccc(Cl)cc2c(NC2CN3CCC2CC3)c1-c1nc2ccccc2[nH]1 (stereo unspecified) [CHIR-124] and give its measured IC50. > 20 µM

---

target: UniProt Q8IIH7; test: IC50 for competition of protein binding to Kinobeads; conditions: assay detail: Kinobeads competition in P. falciparum blood-stage lysate
pIC50: −log10 of the molar value.
testReadout: pIC50

Consider the compound O=c1[nH]c2ccc(Cl)cc2c(NC2CN3CCC2CC3)c1-c1nc2ccccc2[nH]1 (stereo unspecified) and give its measured pIC50. < 4.70

---

target: UniProt C0H5C2; assay: IC50 for competition of protein binding to Kinobeads; conditions: assay detail: Kinobeads competition in P. falciparum blood-stage lysate
pIC50: −log10 of the molar value.
testReadout: pIC50

Consider the compound O=c1[nH]c2ccc(Cl)cc2c(NC2CN3CCC2CC3)c1-c1nc2ccccc2[nH]1 (stereo unspecified) and give its measured pIC50. < 4.70

---

target: UniProt C0H551; experiment: IC50 for competition of protein binding to Kinobeads; details: assay detail: Kinobeads competition in P. falciparum blood-stage lysate
pIC50: −log10 of the molar value.
testReadout: pIC50

Consider the compound O=c1[nH]c2ccc(Cl)cc2c(NC2CN3CCC2CC3)c1-c1nc2ccccc2[nH]1 (stereo unspecified) and give its measured pIC50. < 4.70
